Reference source: patent US20240101552A1

biological target: LANCL2 (Homo sapiens (Human), UniProt Q9NS86); experiment: SPR (BIACORE S200) kinetic determination of LANCL2-small molecule interactions; format: binding; settings: maximum binding force
Sequence (Q9NS86 whole entry, species assumed): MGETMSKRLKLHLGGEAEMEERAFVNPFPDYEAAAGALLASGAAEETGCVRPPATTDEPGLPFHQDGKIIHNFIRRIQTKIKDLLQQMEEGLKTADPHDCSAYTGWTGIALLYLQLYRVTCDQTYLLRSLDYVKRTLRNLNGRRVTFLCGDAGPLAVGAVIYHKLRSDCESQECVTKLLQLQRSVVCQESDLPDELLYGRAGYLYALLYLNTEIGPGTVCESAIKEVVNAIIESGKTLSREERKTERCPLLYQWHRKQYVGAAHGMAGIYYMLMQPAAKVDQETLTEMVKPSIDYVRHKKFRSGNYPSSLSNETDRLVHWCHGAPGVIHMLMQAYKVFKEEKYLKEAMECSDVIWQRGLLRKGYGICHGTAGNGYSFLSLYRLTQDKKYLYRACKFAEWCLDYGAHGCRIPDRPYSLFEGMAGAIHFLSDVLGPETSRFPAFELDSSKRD
recorded metric: Rmax (RU)

// known answers, use as guide
compound: O=C(NC1C2CN(C(=O)c3cccc(-c4nc5ccccc5s4)c3)CC21)c1cccc(-c2nc3ccccc3[nH]2)n1 (centres unmarked)
target system: LANCL2 (Homo sapiens (Human), UniProt Q9NS86)
unit name: RU
Rmax (RU): 7.3

compound: CCCCOc1ccc(C(=O)NC2CCN(C(=O)c3cccc(-c4cn5ccccc5n4)c3)CC2)cc1
target system: LANCL2 (Homo sapiens (Human), UniProt Q9NS86)
unit name: RU
Rmax (RU): 4.5

compound: O=C(c1cccc(-c2nc3ccccc3[nH]2)n1)N1CC2CN(C(=O)c3n[nH]c4ccccc34)CC2C1 (centres unmarked)
target system: LANCL2 (Homo sapiens (Human), UniProt Q9NS86)
unit name: RU
Rmax (RU): 8.9

(A) O=C(c1cccc(-c2nc3ccccc3[nH]2)n1)N1CCC2(CC1)CCN(C(=O)c1ccnc(Nc3ccccc3)n1)CC2
(B) Cc1cn(-c2cccc(C(=O)N3CCC4(CCN(C(=O)c5cccc(-c6cn7ccccc7n6)c5)CC4)CC3)c2)cn1
(C) NC(=O)c1sccc1NC(=O)c1ccc(C(=O)N2CCN(C(=O)c3cccc(-c4nc5ccccc5[nH]4)n3)CC2)cc1
(D) O=C(c1cccc(-c2cn3ccccc3n2)c1)N1CCC2(CC1)CCN(C(=O)c1cccc(-c3cn4ccccc4n3)c1)CC2
Rank ascending by Rmax (RU). Use the labels to give the ranking in the order requested.
D, A, B, C
(D: 4.5 RU, A: 6.5 RU, B: 11 RU, C: 20.8 RU)

(I) O=C(c1ccc(-c2ccccc2)cc1)N1CC2CN(C(=O)c3cccc(-c4nc5ccccc5[nH]4)n3)CC2C1 (centres unmarked)
(II) O=C(NC1CCN(C(=O)c2cccc(-c3cn4ccccc4n3)c2)CC1)c1ccnc(Nc2ccccc2)n1
(III) O=C1CCC(C(=O)N2CC3CN(C(=O)c4cccc(-c5nc6ccccc6[nH]5)n4)CC3C2)=NN1 (centres unmarked)
Put the items in sequence by Rmax (RU), from largest down. Use the labels to give the ranking in the order requested.
II, I, III
(II: 12 RU, I: 5.1 RU, III: 2.3 RU)
